Measured MIC values are reported for all entries that follow.
System: A. flavus MMX 5948
Test: MIC/MEC assay (CLSI microdilution)
Format: cell-based
Details: Aspergillus flavus, MMX5948, 48 h, RPMI plus 0.002% Tween-80, read-out: MIC
Numbered stars: 1 amine (or outer) side, 2 acyl side, 3 side chain; on linkers, the order of the positions; unused ones are H or OH. Square brackets hold non-standard residues; d marks the D form. Peptide text beside a SMILES is read from it. X21 = CC1CCN(c2cc(-c3cccc(C[C@@H](C(=O)[*:2])N(C)[*:1])c3)ccn2)CC1; X31 = CN([C@@H](Cc1cccc(-c2cccc(C(F)(F)F)c2)c1)C(=O)[*:2])[*:1]; X32 = CN([C@@H](Cc1cccc(-c2cccc(F)c2)c1)C(=O)[*:2])[*:1]; Hmp(2R,3S) = CC[C@H](C)[C@@H](O)C(=O)O; NMeVal(β-OH) = CN[C@H](C(=O)O)C(C)(C)O; NMeV = CN[C@H](C(=O)O)C(C)C

CC[C@H](C)[C@@H]1NC(=O)[C@@H]2CCCN2C(=O)[C@H](Cc2cccc(-c3cccc(C(F)(F)F)c3)c2)N(C)C(=O)[C@H](Cc2ccccc2)NC(=O)[C@H](C(C)C)N(C)C(=O)[C@@H]([C@@H](C)CC)OC(=O)[C@H](C(C)(C)O)N(C)C(=O)[C@H](CC(C)C)NC(=O)[C@H](C(C)C)N(C)C1=O [Compound 4] (cyclo(F[X31]PI[NMeV]L[NMeVal(β-OH)][Hmp(2R,3S)][NMeV]))	> 64 µg/mL
CC[C@H](C)[C@@H]1NC(=O)[C@@H]2CCCN2C(=O)[C@H](Cc2cccc(-c3cccc(F)c3)c2)N(C)C(=O)[C@H](Cc2ccccc2)NC(=O)[C@H](C(C)C)N(C)C(=O)[C@@H]([C@@H](C)CC)OC(=O)[C@H](C(C)(C)O)N(C)C(=O)[C@H](CC(C)C)NC(=O)[C@H](C(C)C)N(C)C1=O [Compound 7] (cyclo(F[X32]PI[NMeV]L[NMeVal(β-OH)][Hmp(2R,3S)][NMeV]))	> 64 µg/mL

Note to self: MIC recorded for CC[C@H](C)[C@@H]1NC(=O)[C@@H]2CCCN2C(=O)[C@H](Cc2cccc(-c3ccnc(N4CCC(C)CC4)c3)c2)N(C)C(=O)[C@H](Cc2ccccc2)NC(=O)[C@H](C(C)C)N(C)C(=O)[C@@H]([C@@H](C)CC)OC(=O)[C@H](C(C)(C)O)N(C)C(=O)[C@H](CC(C)C)NC(=O)[C@H](C(C)C)N(C)C1=O [Compound 23] (cyclo(F[X21]PI[NMeV]L[NMeVal(β-OH)][Hmp(2R,3S)][NMeV])) was > 64 µg/mL

----------
Tested on: A. fumigatus MMX 5280 ATCC MYA-3626
Test: MIC/MEC assay (CLSI microdilution)
Type: cell-based, Aspergillus fumigatus
Details: Aspergillus fumigatus, 48 h, RPMI plus 0.002% Tween-80, read-out: MIC
Numbered stars: 1 amine (or outer) side, 2 acyl side, 3 side chain; on linkers, the order of the positions; unused ones are H or OH. Square brackets hold non-standard residues; d marks the D form. Peptide text beside a SMILES is read from it. X17 = CN([C@@H](Cc1cccc(-c2cnc3ccccc3c2)c1)C(=O)[*:2])[*:1]; Hmp(2R,3S) = CC[C@H](C)[C@@H](O)C(=O)O; NMeVal(β-OH) = CN[C@H](C(=O)O)C(C)(C)O; NMeV = CN[C@H](C(=O)O)C(C)C
Measured MIC, listed per entry for reference.

Memo: CC[C@H](C)[C@@H]1NC(=O)[C@@H]2CCCN2C(=O)[C@H](Cc2cccc(-c3cnc4ccccc4c3)c2)N(C)C(=O)[C@H](Cc2ccccc2)NC(=O)[C@H](C(C)C)N(C)C(=O)[C@@H]([C@@H](C)CC)OC(=O)[C@H](C(C)(C)O)N(C)C(=O)[C@H](CC(C)C)NC(=O)[C@H](C(C)C)N(C)C1=O [Compound 27] (cyclo(F[X17]PI[NMeV]L[NMeVal(β-OH)][Hmp(2R,3S)][NMeV])) , reported MIC: > 64 µg/mL

----------
Readings of MIC for the listed compounds
System: A. fumigatus MMX 5280 ATCC MYA-3626
Experiment: MIC/MEC assay (CLSI microdilution)
Assay type: cell-based, Aspergillus fumigatus
Settings: Aspergillus fumigatus, 48 h, RPMI plus 0.002% Tween-80, read-out: MIC
Numbered stars: 1 amine (or outer) side, 2 acyl side, 3 side chain; on linkers, the order of the positions; unused ones are H or OH. Square brackets hold non-standard residues; d marks the D form. Peptide text beside a SMILES is read from it. X2 = CN1CCN(c2ccc(-c3cccc(C[C@@H](C(=O)[*:2])N(C)[*:1])c3)cc2)CC1; X3 = CN1CCN(c2ccc(-c3cccc(C[C@@H](C(=O)[*:2])N(C)[*:1])c3)cn2)CC1; Hmp(2R,3S) = CC[C@H](C)[C@@H](O)C(=O)O; NMeVal(β-OH) = CN[C@H](C(=O)O)C(C)(C)O; NMeV = CN[C@H](C(=O)O)C(C)C
Response body: numeric value in µg/mL, unit text excluded.

CC[C@H](C)[C@@H]1NC(=O)[C@@H]2CCCN2C(=O)[C@H](Cc2cccc(-c3ccc(N4CCN(C)CC4)nc3)c2)N(C)C(=O)[C@H](Cc2ccccc2)NC(=O)[C@H](C(C)C)N(C)C(=O)[C@@H]([C@@H](C)CC)OC(=O)[C@H](C(C)(C)O)N(C)C(=O)[C@H](CC(C)C)NC(=O)[C@H](C(C)C)N(C)C1=O [Compound 20] (cyclo(F[X3]PI[NMeV]L[NMeVal(β-OH)][Hmp(2R,3S)][NMeV]))	0.25

MIC reported for this compound CC[C@H](C)[C@@H]1NC(=O)[C@@H]2CCCN2C(=O)[C@H](Cc2cccc(-c3ccc(N4CCN(C)CC4)cc3)c2)N(C)C(=O)[C@H](Cc2ccccc2)NC(=O)[C@H](C(C)C)N(C)C(=O)[C@@H]([C@@H](C)CC)OC(=O)[C@H](C(C)(C)O)N(C)C(=O)[C@H](CC(C)C)NC(=O)[C@H](C(C)C)N(C)C1=O [Compound 19] (cyclo(F[X2]PI[NMeV]L[NMeVal(β-OH)][Hmp(2R,3S)][NMeV])) : 0.25

----------
This listing pairs compounds with measured MIC.
Test system: C. neoformans MMX 0634 ATCC 90112
Assay: MIC assay (CLSI microdilution)
Type: cell-based
Details: Cryptococcus neoformans, ATCC90112, RPMI plus 0.002% Tween-80; read-out: MIC
Numbered stars: 1 amine (or outer) side, 2 acyl side, 3 side chain; on linkers, the order of the positions; unused ones are H or OH. Square brackets hold non-standard residues; d marks the D form. Peptide text beside a SMILES is read from it. X3 = CN1CCN(c2ccc(-c3cccc(C[C@@H](C(=O)[*:2])N(C)[*:1])c3)cn2)CC1; X23 = CN([C@@H](Cc1cccc(-c2cccc3c2cnn3C)c1)C(=O)[*:2])[*:1]; Hmp(2R,3S) = CC[C@H](C)[C@@H](O)C(=O)O; NMeVal(β-OH) = CN[C@H](C(=O)O)C(C)(C)O; NMeV = CN[C@H](C(=O)O)C(C)C
# value in µg/mL; strip the unit string

CC[C@H](C)[C@@H]1NC(=O)[C@@H]2CCCN2C(=O)[C@H](Cc2cccc(-c3ccc(N4CCN(C)CC4)nc3)c2)N(C)C(=O)[C@H](Cc2ccccc2)NC(=O)[C@H](C(C)C)N(C)C(=O)[C@@H]([C@@H](C)CC)OC(=O)[C@H](C(C)(C)O)N(C)C(=O)[C@H](CC(C)C)NC(=O)[C@H](C(C)C)N(C)C1=O [Compound 20] (cyclo(F[X3]PI[NMeV]L[NMeVal(β-OH)][Hmp(2R,3S)][NMeV]))	0.03

Documented MIC of CC[C@H](C)[C@@H]1NC(=O)[C@@H]2CCCN2C(=O)[C@H](Cc2cccc(-c3cccc4c3cnn4C)c2)N(C)C(=O)[C@H](Cc2ccccc2)NC(=O)[C@H](C(C)C)N(C)C(=O)[C@@H]([C@@H](C)CC)OC(=O)[C@H](C(C)(C)O)N(C)C(=O)[C@H](CC(C)C)NC(=O)[C@H](C(C)C)N(C)C1=O [Compound 14] (cyclo(F[X23]PI[NMeV]L[NMeVal(β-OH)][Hmp(2R,3S)][NMeV])) : 0.5

----------
Test system: A. fumigatus MMX 5280 ATCC MYA-3626
Assay: MIC/MEC assay (CLSI microdilution)
Type: cell-based, Aspergillus fumigatus
Conditions: Aspergillus fumigatus, 48 h, Without Tween-80, read-out: MEC
Numbered stars: 1 amine (or outer) side, 2 acyl side, 3 side chain; on linkers, the order of the positions; unused ones are H or OH. Square brackets hold non-standard residues; d marks the D form. Peptide text beside a SMILES is read from it. X13 = CN([C@@H](Cc1cccc(-c2ccc(N3CCN(C(=O)OC(C)(C)C)CC3)nc2)c1)C(=O)[*:2])[*:1]; X15 = CN([C@@H](Cc1cccc(-c2ccc(N3CCOCC3)nc2)c1)C(=O)[*:2])[*:1]; Hmp(2R,3S) = CC[C@H](C)[C@@H](O)C(=O)O; NMeVal(β-OH) = CN[C@H](C(=O)O)C(C)(C)O; NMeV = CN[C@H](C(=O)O)C(C)C
PARAMETER MEASURED: minimal effective concentration

CC[C@H](C)[C@@H]1NC(=O)[C@@H]2CCCN2C(=O)[C@H](Cc2cccc(-c3ccc(N4CCN(C(=O)OC(C)(C)C)CC4)nc3)c2)N(C)C(=O)[C@H](Cc2ccccc2)NC(=O)[C@H](C(C)C)N(C)C(=O)[C@@H]([C@@H](C)CC)OC(=O)[C@H](C(C)(C)O)N(C)C(=O)[C@H](CC(C)C)NC(=O)[C@H](C(C)C)N(C)C1=O [Compound 26] (cyclo(F[X13]PI[NMeV]L[NMeVal(β-OH)][Hmp(2R,3S)][NMeV]))	> 64 µg/mL

For this molecule ( CC[C@H](C)[C@@H]1NC(=O)[C@@H]2CCCN2C(=O)[C@H](Cc2cccc(-c3ccc(N4CCOCC4)nc3)c2)N(C)C(=O)[C@H](Cc2ccccc2)NC(=O)[C@H](C(C)C)N(C)C(=O)[C@@H]([C@@H](C)CC)OC(=O)[C@H](C(C)(C)O)N(C)C(=O)[C@H](CC(C)C)NC(=O)[C@H](C(C)C)N(C)C1=O [Compound 24] (cyclo(F[X15]PI[NMeV]L[NMeVal(β-OH)][Hmp(2R,3S)][NMeV])) ), measured minimal effective concentration is > 64 µg/mL
